Each recorded value in this set is attributed to paper PMC6360136.

# System: PANC-1 cells
# Assay Remarks: Cell viability assay
# Format: cell-based, human
# Experimental Context: Homo sapiens, PANC-1, 48 h
Counter-ions that a name gives are not always drawn.
Reported Metric: pIC50
Quick note: pIC50 values are minus log10 of concentrations in mol/L.

Provide measured pIC50 value, entry: C#Cc1cccc(Nc2ncnc3cc(OCCOC)c(OCCOC)cc23)c1 [erlotinib hydrochloride, reference compound]
4.88

----------
# System: EC68 cells
# Assay Remarks: Cell viability assay
# Type: cell-based, human
# Experimental Context: Homo sapiens, Pancreatic cancer cell, 48 h
Counter-ions that a name gives are not always drawn.
Reported Metric: pIC50
Scale: negative log10 of molar concentration, which is what pIC50 denotes.

Consider the compound C#Cc1cccc(Nc2ncnc3cc(OCCOC)c(OCCOC)cc23)c1 [erlotinib hydrochloride, reference compound] tested on EC68 cells; state its pIC50.
5.05
